# TARGET OF ASSAY: SARS-CoV 3CLpro (Severe acute respiratory syndrome coronavirus, UniProt P0C6X7)
# TEST PROTOCOL: biochemical
# CONDITION NOTES: read-out: SARS (activity in different coronaviruses)
RESULT TYPE: pIC50
Lab note — pIC50 values are minus log10 of concentrations in M.

*Q* For the compound Cc1cc(C(=O)N[C@@H](CCC(C)C)C(=O)NN(C[C@@H]2CCNC2=O)C(=O)[C@H](F)Cl)no1 [Example 101] , give its measured pIC50 value.
*A* 6.80

----------
# TARGET OF ASSAY: SARS-CoV-2 3CLpro (Severe acute respiratory syndrome coronavirus 2, UniProt P0DTD1)
# TEST PROTOCOL: biochemical
# CONDITION NOTES: read-out: IC50 (μM), SARS-CoV-2 3CLPro assay
Recorded IC50 for the following compounds
Express it in µM; write the number only.

*Q* System SARS-CoV-2 3CLpro (Severe acute respiratory syndrome coronavirus 2, UniProt P0DTD1). Read-out IC50. Item NC(=O)CCN(NC(=O)[C@H](CC1CCCCC1)NC(=O)OCc1ccccc1)C(=O)CCl . Report value.
*A* 0.008

*Q* System SARS-CoV-2 3CLpro (Severe acute respiratory syndrome coronavirus 2, UniProt P0DTD1). Read-out IC50. Item CC1(C[C@H](NC(=O)c2cc(C(F)(F)F)on2)C(=O)NN(C[C@@H]2CCNC2=O)C(=O)[C@H](F)Cl)CC1 . Report value.
*A* 0.017

Next:
*Q* System SARS-CoV-2 3CLpro (Severe acute respiratory syndrome coronavirus 2, UniProt P0DTD1). Read-out IC50. Item COc1cccc2[nH]c(C(=O)N[C@@H](CC3CCCCC3)C(=O)NN(CCC(N)=O)C(=O)CF)cc12 . Report value.
*A* 0.038

*Q* System SARS-CoV-2 3CLpro (Severe acute respiratory syndrome coronavirus 2, UniProt P0DTD1). Read-out IC50. Item CC(C)C[C@H](NC(=O)OCc1ccccc1)C(=O)NN(Cc1c[nH]cn1)C(=O)CCl . Report value.
*A* 0.087

*Q* System SARS-CoV-2 3CLpro (Severe acute respiratory syndrome coronavirus 2, UniProt P0DTD1). Read-out IC50. Item COc1cccc2[nH]c(C(=O)N[C@@H](CC3CCCCC3)C(=O)NN(CCC(N)=O)C(=O)[C@H](F)Cl)cc12 [Example 56-A] . Report value.
*A* 0.008

*Q* System SARS-CoV-2 3CLpro (Severe acute respiratory syndrome coronavirus 2, UniProt P0DTD1). Read-out IC50. Item CC(C)C[C@H](NC(=O)/C=C/c1ccc(Cl)cc1F)C(=O)NN(CCC(N)=O)C(=O)CCl . Report value.
*A* 0.005

*Q* System SARS-CoV-2 3CLpro (Severe acute respiratory syndrome coronavirus 2, UniProt P0DTD1). Read-out IC50. Item CC(C)C[C@H](NC(=O)c1ccon1)C(=O)NN(CCC(N)=O)C(=O)CCl . Report value.
*A* 0.036

*Q* System SARS-CoV-2 3CLpro (Severe acute respiratory syndrome coronavirus 2, UniProt P0DTD1). Read-out IC50. Item CC(C)C[C@H](NC(=O)OCc1ccccc1)C(=O)NN(CCC(N)=O)C(=O)C(Cl)c1ccccc1 (some centres unmarked) . Report value.
*A* 0.89

----------
# TARGET OF ASSAY: SARS-CoV-2 3CLpro (Severe acute respiratory syndrome coronavirus 2)
# TEST PROTOCOL: biochemical
# CONDITION NOTES: IC50 (μM), SARS-CoV-2 3CLPro assay
Consider the cut-off 0.03 µM. If the recorded IC50 is strictly smaller, the label is Y; if not, the label is N.

Some entries whose results are on file:
*Q* A record lists CC(C)C[C@H](NC(=O)c1cc2c(Cl)cccc2[nH]1)C(=O)NN(CCC(N)=O)C(=O)[C@H](F)Cl (single isomer, unassigned) [Example 53-B] . Is its IC50 below 0.03 µM?
*A* Y

*Q* A record lists COc1cccc2[nH]c(C(=O)N[C@@H](CC3CCCCC3)C(=O)NN(CCC(N)=O)C(=O)CCl)cc12 [Example 32] . Is its IC50 below 0.03 µM?
*A* Y

*Q* A record lists CC(C)C[C@H](NC(=O)c1cc2c(Cl)cccc2[nH]1)C(=O)NN(CCC(N)=O)C(=O)[C@@H](F)Cl (single isomer, unassigned) [Example 53-A] . Is its IC50 below 0.03 µM?
*A* Y

Next:
*Q* A record lists CC1(C[C@H](NC(=O)c2cc(C(F)F)on2)C(=O)NN(C[C@@H]2CCNC2=O)C(=O)[C@H](F)Cl)CC1 [Example 100] . Is its IC50 below 0.03 µM?
*A* Y

*Q* A record lists Cc1cc(C(=O)N[C@@H](CC2CC2)C(=O)NN(CCC(N)=O)C(=O)C(F)Cl)no1 (mixture of isomers) [Example 75] . Is its IC50 below 0.03 µM?
*A* N

*Q* A record lists COc1cccc2[nH]c(C(=O)N[C@@H](CC(C)C)C(=O)NN(CCC(N)=O)C(=O)CF)cc12 [Example 30] . Is its IC50 below 0.03 µM?
*A* N
